- assay-system: HLA-B*3501 (human)
- procedure-details: competition with 125I probe peptide, purified HLA
observed-property: log10 of IC50 (log10 of the value in nM)

>>> measured_number("FPHQALLHTI (analog peptide) [Her2/neu.488.F1I10]")
2.82
>>> measured_number("CPSGVKPDLSY (native HER2/neu peptide from position 600) [Her2/neu.600]")
3.56
>>> measured_number("FPNPEGRYTI (analog peptide) [Her2/neu.282.F1]")
1.38
>>> measured_number("FPLNNTTPV (analog peptide) [Her2/neu.121.F1]")
1.60
>>> measured_number("FPTNASLSFI (analog peptide) [Her2/neu.65.F1I10]")
2.63
>>> measured_number("FPTNASLSFL (analog peptide) [Her2/neu.65.F1 (10-mer)]")
2.30
>>> measured_number("FPDLSYMPI (analog peptide) [Her2/neu.605.F1]")
2.22
>>> measured_number("FPLNNTTPI (analog peptide) [Her2/neu.121.F1I9]")
2.30
